Data credit: PubChem BioAssay AID1963825

# PROTOCOL: Anticancer human tumor 997537-175-T-J1-PDC patient-derived colon adenocarcinoma cell line growth inhibition [POLQ];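 further: luminescence signal used as a surrogate for viable cells; spheroids exposed to drugs for seven days before readout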
# TEST SETTINGS: 997537-175-T-J1-PDC complex spheroid viability, combination with POLQ inhibitors; second compound 0.1 µM; first compound 0.001 µM; hits give low values
READOUT: viability, T/C (%)

INSERT INTO results (compound, readout, recorded_measurement) VALUES
  ('Cn1ncnc1[C@H]1c2n[nH]c(=O)c3cc(F)cc(c23)N[C@@H]1c1ccc(F)cc1 + Cc1cccc(N(C)C(=O)C2C(O)CCN2c2nc(C)cc(C(F)(F)F)c2C#N)c1', 'viability, T/C', 113),
  ('CC[C@@]1(O)C(=O)OCc2c1cc1n(c2=O)Cc2cc3c(CN(C)C)c(O)ccc3nc2-1 + COC1C(OC(N)=O)C(O)C(Oc2ccc3c(O)c(NC(=O)c4ccc(O)c(CC=C(C)C)c4)c(=O)oc3c2C)OC1(C)C', 'viability, T/C', 101),
  ('Cn1ncnc1[C@H]1c2n[nH]c(=O)c3cc(F)cc(c23)N[C@@H]1c1ccc(F)cc1 + Nc1ccc(C#CCN(C(=O)Cc2ncc(C(F)(F)F)cc2C(F)(F)F)c2ccc(F)cc2)nn1', 'viability, T/C', 114),
  ('CC[C@@]1(O)C(=O)OCc2c1cc1n(c2=O)Cc2cc3c(CN(C)C)c(O)ccc3nc2-1 + Cc1cccc(N(C)C(=O)C2C(O)CCN2c2nc(C)cc(C(F)(F)F)c2C#N)c1', 'viability, T/C', 92.4),
  ('CC[C@@]1(O)C(=O)OCc2c1cc1n(c2=O)Cc2cc3c(CN(C)C)c(O)ccc3nc2-1 + Nc1ccc(C#CCN(C(=O)Cc2ncc(C(F)(F)F)cc2C(F)(F)F)c2ccc(F)cc2)nn1', 'viability, T/C', 91),
  ('Cn1ncnc1[C@H]1c2n[nH]c(=O)c3cc(F)cc(c23)N[C@@H]1c1ccc(F)cc1 + COC1C(OC(N)=O)C(O)C(Oc2ccc3c(O)c(NC(=O)c4ccc(O)c(CC=C(C)C)c4)c(=O)oc3c2C)OC1(C)C', 'viability, T/C', 96.8);
